- ASSAY_DETAILS: Caspase-3/7 induction in HepG2 cells by small molecules, qHTS assay (AID 1346978); also: nearly all actives have a fitted effect of over 15% in size
- RUN_CONDITIONS: HepG2 caspase-3/7 activation, Caspase-Glo luminescence, 17 h; series mostly up to 92.4 µM
Records with an inconclusive call do not appear. Activity calls are given as the source filed them. Calls follow the shape of the dose curve; as a rule, active = well fitted activation curve with a large enough effect in the repeat runs; inconclusive = weak or mixed curves; inactive = flat fitted curve, though single readings scatter.
Outcome codes: Yes for active, No for inactive

- COc1ccc(Cc2nccc3cc(OC)c(OC)cc23)cc1OC: No
- C=Cc1cccc(CCl)c1: No
- O=[N+]([O-])c1ccccc1-c1ccccc1: No
- CC(C)C(Br)C(=O)NC(N)=O (stereo unspecified): No
- CC(C)=CC1C(C(=O)OC(C#N)c2cccc(Oc3ccccc3)c2)C1(C)C (stereo unspecified): No
- Cc1c([N+](=O)[O-])c(C)c([N+](=O)[O-])c(C(C)(C)C)c1[N+](=O)[O-]: No
- Cc1ccc2cc3c(ccc4ccccc43)c3c2c1CC3: Yes
- CC(C)N(C(=O)SC/C(Cl)=C/Cl)C(C)C: No
- CN1CCc2cc3c(cc2C1O)OCO3 (stereo unspecified): No
- CCCCC/C=C\C/C=C\C/C=C\C/C=C\CCCC(=O)NCC(=O)O: No
- CCC1COC(Cn2cncn2)(c2ccc(Cl)cc2Cl)O1 (stereo unspecified): No
